# Tested On: T1, rat α-CGRP (1-37) (rat, C-terminal amide; N-terminal biotin when captured on the SA chip)
# T1 construct: also called rat α (1-37); α-rat
# T1 peptide: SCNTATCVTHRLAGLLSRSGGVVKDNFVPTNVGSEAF
# Method Description: Biacore, 37°C, Fab over CGRP on SA chip
# reported koff; entries follow
Dear colleague, please return just the value in s⁻¹, with no unit written.

Binder	Measured Property	Value Reported
G1 variant M79 Fab (Fab, V domains shown, Fab; constant domains as m1) VH: EVQLVESGGGLVQPGGSLRLSCAASGFTFSNYWISWVRQAPGKGLEWVAEIRSKSDPSATHYAEAVKGRFTISRDNAKNSLYLQMNSLRAEDTAVYYCTVYFDYGLAIQNYWGQGTLVTVSS VL: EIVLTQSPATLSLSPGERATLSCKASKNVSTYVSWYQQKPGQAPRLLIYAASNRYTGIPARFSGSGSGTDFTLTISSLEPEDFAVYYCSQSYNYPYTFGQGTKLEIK	koff	0.19

Give its koff value. Item: G1 variant M40 Fab (Fab, V domains shown, Fab; constant domains as m1) VH: EVQLVESGGGLVQPGGSLRLSCAASGFTFSNYWISWVRQAPGKGLEWVAEIRSKSDLSATHYAEAVKGRFTISRDNAKNSLYLQMNSLRAEDTAVYYCTVYFDYGLAIQNYWGQGTLVTVSS VL: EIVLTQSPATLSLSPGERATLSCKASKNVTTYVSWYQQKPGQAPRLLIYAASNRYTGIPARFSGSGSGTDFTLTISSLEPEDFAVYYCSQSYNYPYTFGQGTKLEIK
0.36

Thanks! And G1 variant M38 Fab (Fab, V domains shown, Fab; constant domains as m1) VH: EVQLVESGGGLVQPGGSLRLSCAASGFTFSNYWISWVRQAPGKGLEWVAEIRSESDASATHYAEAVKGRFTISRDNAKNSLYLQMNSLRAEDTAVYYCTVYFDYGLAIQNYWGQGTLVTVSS VL: EIVLTQSPATLSLSPGERATLSCKASKNVWTYVSWYQQKPGQAPRLLIYGASNRYLGIPARFSGSGSGTDFTLTISSLEPEDFAVYYCSQSYNYPYTFGQGTKLEIK ?
0.00511
